tested-target: T1, Recombinant human IL-1beta (rhIL-1b) (human, UniProt P01584 117-269)
T1 construct: R&D Systems Cat. No. 201-LB/CF; also called IL-1β; human IL-1β
assay-method-text: Biacore, Medium Resolution; IL-1β in solution; medium-resolution Biacore
Decide using koff alone. Strictly below 0.0002 s⁻¹: 1 (yes). Equal to or above 0.0002 s⁻¹: 0 (no).

>>> assigned_category("9.11.1 (antibody, human IgG4, V domains shown, lambda; also called 9.11.3) VH: QVQLVESGGGVVQPGRSLRLSCAASGFTFSVYGMHWVRQAPGKGLEWVAVIWYDGNNKYYVDSVKGRFTISRDNSKNTLYLQLNSLRAEDTAVYYCARERSSSWYFDYWGQGTLVTVSS VL: QSALTQPASVSGSSGQSITISCTGTSSDVGSYNLVSWYQQHPGKAPKLMIYEVSKRPSGVSNRFSGSKSGNTASLTISGLQAEDEADYYCCSYAGNSNWVFGGGTKLTVL")
"0 (no)"
>>> assigned_category("9.54.1 (antibody, human IgG4, V domains shown, lambda; also called 9.54.2) VH: QVQLVESGGGVVQPGRSLRLSCAASGFTFSSFGMHWVRQAPGKGLEWVAVIWYDGSNKYYADSVKGRFTISRDNSKNTLYLQMNSLRAEDTAVYYCARDPNYDILTGYYYYGMDVWGQGTTVTVS VL: SSELTQDPAVSVALGQTVRITCQGDILRTYYASWYQQKPGQAPVLVIYGKNDRPSGIPDRFSGSSSGNTASLTITGAQAEDEADYYCDSRDNTVTHLVFGGGTKLTVL")
"0 (no)"
>>> assigned_category("6.26.1 (antibody, human IgG4, V domains shown, lambda; also called 6.26.4) VH: QLQLQESGPGLVKPSETLSLTCTVSGGSISRSSYYWGWIRQPPGKGLEWMGNIYYSGSTHYNPSLKSRVTISVDTSKNQFSLKLSSVTAADTAVFYCAKGREYISSSGYGMDVWGQGTTVTVS VL: SYELTQPPSVSVSPGQTASITCSGDKLGNKYVCWYQQKPGQSPVLVIFQDSRRPSGIPERFSGSNSGNTATLTISGTQAMDEADYYCQAWDTSTVIFGGGTKLTVL")
"0 (no)"
>>> assigned_category("6.33.1 (antibody, human IgG4, V domains shown, lambda; also called mAb 6.33.1) VH: QVQLVESGGGVVQPGRSLRLSCAASGFTFSVYGMHWVRQAPGKGLEWVAVIWYDGSNKYYADSVKGRFTISRDNSKNTLYLQMNSLRAEDTAVYYCAREKSSGWFFDYWGQGTLVTVSS VL: QSALTQPASVSGSPGQSITISCTGTSSDVGSYNLVSWYQQHPGKAPKLMIYEVSKRPSGISNRFSGSKSGNTASLTISGLQAEDEADYYCCSYAGNSIWVFGGGTKLTVL")
"1 (yes)"
>>> assigned_category("5.5.1 (antibody, IgG4, V domains shown, lambda; also called mAb 5.5.1; Ab 5.5.1) VH: QVQLVESGGGVVQPGRSLRLSCAASGFTFSSYGMHWVRQAPGKGLEWVAVIWYDGDNKYYADSVQGRFTISRDNSKNTLYLQMNSLRPEDTAVYYCARERSSSWYFDYWGQGTLVTVSS VL: QSALTQPASVSGSPGQSITISCTGTSSDVGSYNLVSWYQQHPGKAPKLMIYEVSKRPSGISNRFSGSKSGNTASLTISGLQAEDEADYYCCSYAGSSTWVFGGGTKLTVL")
"0 (no)"
